- test: Lipophilicity, log k of compound in DMPC/buffer incubated for 30 mins by spectrophotometry
- Type: physicochemical
- statedConditions: 0.5 h
assayEndpoint: log Kp
Give bare numbers.

// worked examples, log Kp included
compound | measuredResult
Cc1csc(C(=O)/C=C/c2cc(Cl)cc(Cl)c2)c1 | 4.43
COc1cc(/C=C/C(=O)c2ccc(OC)c(OC)c2)cc(OC)c1 | 3.29
COc1cc(C2OC2C(=O)c2cc(C)cs2)cc(OC)c1OC (stereo unspecified) | 3.75

Report log Kp for each item below.
1. COc1cc(-c2cc(-c3cc(C)cs3)n[nH]2)cc(OC)c1OC
2. COc1ccc(C(=O)/C=C/c2cc(OC)c(OC)c(OC)c2)cc1OC
3. O=C(/C=C/c1ccc(Cl)c(Cl)c1)c1cccs1
4. COc1ccc(/C=C/C(=O)c2cccs2)cc1OC

a:
[4.04, 3.3, 2.77, 3.62]

List reported log Kp for each of these compounds:
1. COc1cc(-c2cc(-c3cccs3)n[nH]2)cc(OC)c1OC
2. COc1cc(C2OC2C(=O)c2cccs2)cc(OC)c1OC (stereo unspecified)
3. Cc1csc(C(=O)/C=C/c2ccc(Cl)c(Cl)c2)c1
4. COc1ccc(/C=C/C(=O)c2ccc(OC)c(OC)c2)cc1OC
5. COc1cc(/C=C/C(=O)c2ccc(C)s2)cc(OC)c1OC
6. COc1ccc(/C=C/C(=O)c2cc(C)cs2)cc1OC
7. COc1cc(/C=C/C(=O)c2cc(C)cs2)cc(OC)c1

a:
1. 3.16
2. 2.8
3. 2.8
4. 3.51
5. 3.53
6. 3.72
7. 3.52

Below is a list of compounds. For each, state its recorded log Kp.
1. COc1cc(OC)c(OC)cc1/C=C/C(=O)c1cccs1
2. COc1cc(/C=C/C(=O)c2cc(C)cs2)cc(OC)c1OC

a:
3.49
3.54
